Tested on: FAB9
assay procedure: qHTS profiling for inhibitors of Plasmodium falciparum proliferation (AID 504749); also: nearly all actives have a fitted effect of over 60% in size
condition set: P. falciparum in erythrocytes, SYBR Green DNA, 72 h; series mostly up to 28.7 µM
Records with an inconclusive call do not appear. Active and inactive are the calls of the source. Calls follow the shape of the dose curve; as a rule, active = well fitted inhibition curve with a large enough effect; inconclusive = small, poorly fitted or top-dose-only effect; inactive = flat fitted curve, though single readings scatter.
metric name: outcome

structure smiles string | metric name | result value
COc1cccc2c1C(=O)c1c(O)c3c(c(O)c1C2=O)C[C@](O)(C(=O)CO)C[C@@H]3O[C@H]1C[C@H](N)[C@@H](O)[C@H](C)O1 | outcome | inactive
Cc1cn([C@H]2C[C@H](N=[N+]=[N-])[C@H](CO)O2)c(=O)[nH]c1=O | outcome | inactive
CO/N=C(\C(=O)N[C@@H]1C(=O)N2C(C(=O)[O-])=C(C[N+]3(C)CCCC3)CS[C@@H]12)c1csc(N)n1 | outcome | inactive
CC(=O)N1CCN(c2ccc(OC[C@@H]3CO[C@@](Cn4ccnc4)(c4ccc(Cl)cc4Cl)O3)cc2)CC1 | outcome | inactive
